molecular target: T1, KDR (1-3) (UniProt P35968 20-327, limits assumed); assay: competition ELISA vs biotinylated native VEGF (8-109) for KDR (1-3)
T1 construct: domain: domains 1 to 3; Genentech reagent; also called KDR (1-3) monomer; domains 1 to 3 of KDR
T1 sequence (P35968 20-327 limits assumed): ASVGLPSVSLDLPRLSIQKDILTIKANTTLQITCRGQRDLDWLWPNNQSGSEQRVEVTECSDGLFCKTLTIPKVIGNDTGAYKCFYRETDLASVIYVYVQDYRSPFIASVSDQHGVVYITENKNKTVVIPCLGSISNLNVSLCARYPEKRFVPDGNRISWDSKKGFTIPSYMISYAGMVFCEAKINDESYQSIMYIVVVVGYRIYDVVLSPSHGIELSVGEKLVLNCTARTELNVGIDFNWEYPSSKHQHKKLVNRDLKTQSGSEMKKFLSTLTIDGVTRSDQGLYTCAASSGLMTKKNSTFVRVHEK
This listing pairs binders with measured relative binding affinity (ratio to native VEGF (8-109)).
Please state the figure in ratio; there is no need to write the unit.

binder: LK-VRB-9s (ligand, human, UniProt P15692-4 27-135, looked up) APMAEGGGQNHHEVVKFMDVYRRSYCHPIETLVDIFQEYPDEIEYIFKPSCVPLMRCGGCCNSEMRECVPTEESNITMQIMRIKPHQGQHIGEMSFLQHNKCECRPKKD
recorded_measurement: 0.5
//
binder: LK-VRB-26s (ligand, human, UniProt P15692-4 27-135, looked up) APMAEGGGQNHHEVVKFEDVLRRSSCHPIETLVDIFQEYPDEIEYIFKPSCVPLMRCGGCCNDEMRECVPTEESNITMQIMRIKPHQGQHIGEMSFLQHNKCECRPKKD
recorded_measurement: 23
//
binder: LK-VRB-22s (ligand, human, UniProt P15692-4 27-135, looked up) APMAEGGGQNHHEVVKFEDVLRRSSCHPIETLVDIFQEYPDEIEYIFKPSCVPLMRCGGCCNDEMLECVPTEESNITMQIMRIKPHQGQHIGEMSFLQHNKCECRPKKD
recorded_measurement: 4

Give me measured relative binding affinity (ratio to native VEGF (8-109)), please, for this binder: LK-VRB-11s (ligand, human, UniProt P15692-4 27-135, looked up) APMAEGGGQNHHEVVKFEDVLQRSYCHPIETLVDIFQEYPDEIEYIFKPSCVPLMRCGGCCNSEMRECVPTEESNITMQIMRIKPHQGQHIGEMSFLQHNKCECRPKKD
2

The reported numbers originate from patent US7090834B1.
